Target: T1, 4H797-AA
T1 chain: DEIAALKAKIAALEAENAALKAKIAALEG
Experiment: two-hybrid library CCmax;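 note: natural log of median RNA to DNA barcode read ratio; higher means stronger binding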
Conditions: mean of both orientations
OBSERVED PROPERTY: interaction score
Respond with the number and no other words.

Here's what some known entries look like.
* DKNAALKAKNAALEAKIAALEAEIAALEG [4H4001-AA] | -1.79
* DKNAALKAEIAALEAEIAALEAKIAALKG [4H3590-AA] | -1.01
* DKIAALKAENAALEAKIAALEAKIAALEG [4H2725-AA] | -1.21
* DKNAALKAKIAALEAENAALKAEIAALEG [4H3865-AA] | 1.12
* DEIAALKAENAALKAKIAALKAEIAALEG [4H745-AA] | -1.44

Q: Indicate its recorded interaction score; the binder in question is DKIAALEAEIAALKAKNAALEAEIAALKG [4H2162-AA]
A: -1.49

Q: Indicate its recorded interaction score; the binder in question is DKIAALKAKNAALKAEIAALEAKNAALKG [4H3016-AA]
A: -1.65

Q: Indicate its recorded interaction score; the binder in question is DENAALKAKIAALEAKNAALEAKIAALEG [4H1845-AA]
A: -0.965

Q: Indicate its recorded interaction score; the binder in question is DKIAALEAENAALKAEIAALKAKIAALEG [4H2253-AA]
A: -1.07

Q: Indicate its recorded interaction score; the binder in question is DENAALEAEIAALKAKNAALEAKIAALKG [4H1142-AA]
A: -1.29
